// data source = PubChem BioAssay AID652039

# TEST_SYSTEM: Kallikrein-7 (Homo sapiens)
# PROTOCOL_DETAILS: activation of human kallikrein-7 proenzyme – biochemical, fluorescence intensity, primary screen (AID 652039)
# MEASUREMENT_SETUP: purified proKLK7, EDANS-DABCYL substrate fluorescence; at 7 µM; active compounds read high; 100% is mature enzyme control, 0% vehicle
The whole screen tested about 370,000 compounds, of which about 3,300 (0.89%) were called active. The entries come from a sample that favours actives as a whole.
OUTCOME_MEASURE: activation (%)
Kindly answer with a numeric value in %, unit omitted.

Query Nc1[nH]c(/C=C2/CCCCC2n2[nH]c(=O)n(-c3ccccc3)c2=O)c(Cc2ccccc2)[n+]1Cc1ccccc1 (centres undefined) on Kallikrein-7 (Homo sapiens); activation returned: -0.08

Query CCOC(=O)c1cc(-c2ccc(Cl)s2)nc2c1c(C)nn2C on Kallikrein-7 (Homo sapiens); activation returned: -3.83

Query Nc1ccc2nn(-c3ccc(Cl)cc3)nc2c1 on Kallikrein-7 (Homo sapiens); activation returned: 64.3

Query Nc1nc2cc(Cl)ccc2n1N on Kallikrein-7 (Homo sapiens); activation returned: 0.42

Query COC(=O)[C@]12C[C@H](CC(=O)NCC34CC5CC(CC(C5)C3)C4)C(=O)N(Cc3ccc(Cl)cc3Cl)C1=C[C@H](COCc1ccccc1)O[C@@H]2C on Kallikrein-7 (Homo sapiens); activation returned: -0.26

Query CCC(=O)Nc1ccc2nn(-c3ccc(F)cc3)nc2c1 on Kallikrein-7 (Homo sapiens); activation returned: 7.33

Query COc1ccc(Cn2cc(CN3[C@@H](CC(C)C)COc4cc(Br)ccc4S3(=O)=O)nn2)cc1 on Kallikrein-7 (Homo sapiens); activation returned: 0.02

Query COc1ccc(-c2cc(=O)oc3cc(OCC(=O)N(C)C4CCS(=O)(=O)C4)ccc23)cc1 (centres undefined) on Kallikrein-7 (Homo sapiens); activation returned: -0.13

Query CCOC(=O)[C@]12CCCC=C1N(CCCOC)C(=O)[C@@H]2CC(=O)N1CCOCC1 on Kallikrein-7 (Homo sapiens); activation returned: 0.35

###

# TEST_SYSTEM: Kallikrein-7 (Homo sapiens)
# PROTOCOL_DETAILS: activation of human kallikrein-7 proenzyme – biochemical, fluorescence intensity, primary screen (AID 652039)
# MEASUREMENT_SETUP: purified proKLK7, EDANS-DABCYL substrate fluorescence; at 7 µM; 100% is mature enzyme control, 0% vehicle
In all, about 370,000 compounds went through this assay and about 3,300 (0.89%) were called active.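 The calls were made as follows: active = activation above the mean of all tested compounds plus 3 SD, computed per campaign excluding outliers beyond control limits (cut at about 13% in these data); inactive = the rest.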 The full list was thinned out, with actives kept by preference.
Give one outcome, nothing more. List: active, inactive

-- ask Returns: the outcome recorded for NC(N)=Nc1nc(-c2ccccc2)c2cc(Cl)ccc2n1 in this assay.
-- reply active

-- ask Returns: the outcome recorded for COc1cccc(-c2coc3cc4oc(=O)c(CC(=O)O)c(C)c4cc23)c1 in this assay.
-- reply inactive

-- ask Returns: the outcome recorded for CC(=O)Oc1ccc2c(C)c(CC(C)O)c(=O)oc2c1 (stereo unspecified) in this assay.
-- reply active

-- ask Returns: the outcome recorded for O=C1CCC2(CCC(c3ccc(Cl)cc3)CC2)N1CCO (stereo unspecified) in this assay.
-- reply inactive

-- ask Returns: the outcome recorded for CCc1c(C)c2ccc(OC3CCCCC3=O)cc2oc1=O (stereo unspecified) in this assay.
-- reply inactive

-- ask Returns: the outcome recorded for Cc1ccc(-n2nc(-c3ccco3)cc2C(=O)NCc2cccnc2)cc1 in this assay.
-- reply inactive

-- ask Returns: the outcome recorded for O=C(NCc1ccco1)C1CCCN(S(=O)(=O)c2ccc(Cl)s2)C1 (stereo unspecified) in this assay.
-- reply inactive

-- ask Returns: the outcome recorded for Cc1ccccc1NC(=O)C1CCN(c2ncccn2)CC1 in this assay.
-- reply inactive

-- ask Returns: the outcome recorded for CCOC(=O)c1csc(NC(=O)C2CCCN(S(=O)(=O)c3ccc(Cl)s3)C2)n1 (stereo unspecified) in this assay.
-- reply inactive

-- ask Returns: the outcome recorded for O=C1OCCN1C(=O)[C@H]1[C@H](c2ccc(Cl)cc2)C(c2cccc(Cl)c2)=NN1c1ccc(Br)cc1 in this assay.
-- reply inactive

-- ask Returns: the outcome recorded for Cc1ccc(OCC(=O)Nc2ccc3oc(=O)ccc3c2)cc1C in this assay.
-- reply inactive
